Test system: OVCAR-3 ovarian
measurement-description: NCI-60 one-dose screen, 48 h
cond: 10 µM unless noted
About 83,000 compounds went through this panel and 20% of them were active in at least one assay; those are over-represented in the sample as a whole. Calls of active or inactive are those of the source. Rule for the calls: active = growth percent below 10; inactive = the rest.
Labels: true (1) for active, false (0) for inactive

compound | answer-label
CCCCCCCCCCCCCCCCCCOc1ccc(CC(=O)OCC[N+]2(C)CCCC2)cc1 | false (0)
Cc1ccc(Cl)c(NS(=O)(=O)c2ccc(-c3cnc(C4CC4)o3)cc2)c1 | true (1)
O=C(Nc1ccc(Nc2ccncc2)cc1)c1ccc(C(=O)Nc2ccc(Nc3ccncc3)cc2)cc1 | false (0)
S=C(Cc1ccc2c(c1)CCCC2)N1CCOCC1 | false (0)
Cc1cc(/C=C\c2ccc3ccccc3[n+]2C)c(O)c2ncccc12 | false (0)
CC(=O)N1C(=S)NC(=O)C1Cn1c(-c2ccccc2)nc2ccccc21 (stereo not given) | false (0)
Cc1cc(NCCCCNc2ccnc3cc(Cl)ccc23)nc(Nc2ccc(C(=O)N3CCCC3)cc2)n1 | false (0)
N#CC1=C(NC=O)Oc2c(ccc3ccccc23)C1c1ccccc1 (stereo not given) | true (1)
Clc1ccc(-c2c3ccc(=[N+]4CCCCC4)cc-3oc3cc(N4CCCCC4)ccc23)cc1 | true (1)
CCCCN(CCCC)CC(C)(C)C(O)c1ccc(OC)c2ccccc12 (stereo not given) | true (1)
CCCCCCCCn1ccc2cc(NC(=O)Cn3cc(CN4CCCC4)nn3)ccc21 | false (0)
COc1cc(C2CC(=O)Nc3c2c(C)nn3-c2nc3ccccc3[nH]2)cc2c1OCC(=O)N2 (stereo not given) | false (0)
CC(=O)[C@@H]1CC[C@]2(COS(=O)(=O)c3ccc(C)cc3)CC[C@]3(C)[C@H](CC[C@@H]4[C@@]5(C)CCCNC(C)(C)[C@@H]5CC[C@]43C)[C@@H]12 | false (0)
CCc1c2c(nc3ccc(OC(=O)OCc4ccc(B5OC(C)(C)C(C)(C)O5)cc4)cc13)-c1cc3c(c(=O)n1C2)COC(=O)[C@]3(O)CC | true (1)
COc1ccc(NC(=O)c2nc(-c3cc(OC)c(OC)c(OC)c3)n(-c3cccc4ccccc34)n2)cc1OC | false (0)

* * *

System: UACC-62 melanoma
measurement-description: NCI-60 one-dose screen, 48 h (100 = growth as untreated, 0 = no growth, -100 = all killed)
cond: 10 µM unless noted
About 83,000 compounds went through this panel and 20% of them were active in at least one assay; those are over-represented in the sample as a whole.
# Lookup of reported growth keyed by entry
measurement-kind: growth (%)

cpd-smiles | readout-value
COc1ccc(OC)c(-c2c(C#N)c(-c3ccc(Cl)cc3)nc3c2c(-c2ccccc2)nn3-c2ccccc2)c1 | 90.7
CC/C=C\C[C@H](O)C/C=C1/C(=O)C=C[C@@H]1C/C=C\CCCC(=O)OC | -40.3
O=C(COc1ccc(/C=C2\Oc3ccccc3C2=O)cc1)c1ccc(Cl)cc1 | 88.2

* * *

Test system: UACC-62 melanoma
measurement-description: NCI-60 one-dose screen, 48 h
cond: 10 µM unless noted
The panel holds about 83,000 compounds, 20% with a hit somewhere; the sample as a whole holds those more often. Calls of active or inactive are those of the source. Rule for the calls: active = growth percent below 10; inactive = the rest.
Labels: Y (active), N (inactive)

compound | answer-label
C=C(C)[C@@H]1CC[C@]2(C)[C@H](CC=C3[C@@H]4CC(C)(C)CC[C@]4(C(N)=O)CC[C@]32C)[C@@]1(C)CCC#N | N
NNC(=O)c1nc(N)n(-c2ccc(S(N)(=O)=O)cc2)n1 | N
CCN(CC)CCn1nc2c3c(cccc3c1=O)-c1ccccc1-2 | Y
CCOc1c(C#N)nnc2c(C#N)c(NC(=O)c3ccccc3)nn12 | N
N#C/C(=C\c1ccc2c(c1)OCO2)n1nnc2cc(F)c(F)cc21 | N
C[C@H]1[C@H]2[C@H]3CC[C@@H]4[C@@]5(C)C/C(=C/c6ccco6)C(=O)C(C)(C)[C@@H]5CC[C@@]4(C)[C@]3(C)CC[C@]23CO[C@]1(C)[C@@H](C(=O)/C=C\c1ccco1)C3 | N
COc1cc(N=Nc2cc(Cc3ccc(N(C)C)cc3)c(N)cc2N(C)C)c2ncccc2c1 | Y
Cc1nc2ccccc2n1CC1NC(=O)NC1=O (stereo not given) | N
CCOC(=O)C/C(C)=N\NC(=O)c1ccncc1 | N
O=C(/C=C/c1ccc(Cl)nc1)c1ccc(Cl)cc1Cl | N
CCOP(=O)(OCC)C1CP(=O)(c2ccccc2)CC(C)=C1Cl (stereo not given) | N
COc1ccc(NC(=O)CSc2nnc(-c3cc(-c4ccc(S(N)(=O)=O)cc4)nc4ccccc34)n2-c2ccccc2)cc1 | N
COc1ccc(C2CC(c3cccc(OC)c3)=NN2C(=O)c2cc(OC)c(OC)c(OC)c2)cc1 (stereo not given) | N
O=Cc1ccc(O)c2ncccc12 | N
Cc1cc(Cl)ccc1Nc1nc(C(F)(F)F)ccc1C(=O)N/N=C/c1ccc(N(C)C)cc1 | Y

* * *

System: SN12C renal
measurement-description: NCI-60 one-dose screen, 48 h
cond: 10 µM unless noted
This is part of a sample that, as a whole, favours compounds with a hit. Of some 83,000 tested, about 20% had one in any assay. Calls of active or inactive are those of the source. Rule for the calls: active = growth percent below 10; inactive = the rest.
Labels: YES = active, NO = inactive

molecule | answer-label
Cc1ccc2nc(NC(=O)CSc3nc(-c4ccccc4)c(C#N)c(=O)n3Cc3ccccc3)sc2c1 | NO
O=C(Nc1ccc(Cl)cc1)Nc1ccc(Cl)c(C(F)(F)F)c1 | YES
C=C1C(=O)O[C@H]2[C@H]1CC/C(CNC(=O)/C=C/c1ccc(Cl)cc1Cl)=C\CC[C@@]1(C)O[C@@H]21 | YES
CC(=O)O[C@]1(C(C)=O)CCC2C3C[C@H](C)C4=CC(=O)CC[C@]4(C)C3CC[C@@]21C (stereo not given in full) | NO
COc1cc(N2C(=O)c3nccnc3C2=O)cc(OC)c1OC | NO
c1ccc2c(c1)nc(CN1CCOCC1)n1cc(N3CCCC3)nc21 | NO
C=CCNc1nc(NN2C(=O)c3cccc4cccc(c34)C2=O)nc(-n2cnc3ccccc32)n1 | NO
Cc1cc(=O)oc2c1ccc1oc(C#N)c(C)c12 | NO
CCN(CCNc1ccc(C)c2sc3ccccc3c(=O)c12)CC(C)(C)O | NO
Nc1nc(N)c2c(n1)NC(c1ccccc1)C1CCc3ccccc3C1=N2 (stereo not given) | NO
O=C(COc1ccc(/C=C2\Oc3ccccc3C2=O)cc1)c1ccc(Cl)cc1 | NO
CN(c1ccccc1)c1ccc2c(c1)OCCC21CC1Nc1cnccc1C(=O)O (stereo not given) | NO
Cc1ccc(S(=O)(=O)n2cc(CNc3ccc(N4CCOCC4=O)cc3)c3ccccc32)cc1 | NO
N#Cc1c(N)nc2c(C#N)c(NC(=O)c3ccccc3)nn2c1-c1ccccc1 | NO
COc1cccc(C(=O)NCCCNc2cc(-c3cn(-c4ccccc4)nc3-c3cccc(OC)c3)ccn2)c1 | NO
NCCCNc1nc2ccccc2c2c(=O)c3cccc(Cl)c3sc12 | NO
Cc1cc(NCc2cc(Nc3ccnc4cc(Cl)ccc34)ccc2F)nc(N2CCSCC2)n1 | NO
CCOP(=O)(OCC)C1CP(=O)(c2ccccc2)CC(C)=C1Cl (stereo not given) | NO
COc1ccc(CNC(=O)C(O)C(Cc2ccccc2)NC(=O)c2[nH]c3ccccc3c(=O)c2C)cc1OC (stereo not given) | NO
c1ccc(Nc2nc(-c3ccccn3)cs2)nc1 | NO
COc1ccc(C2=NN(C(=O)c3cc(OC)c(OC)c(OC)c3)C(c3ccc(Cl)cc3)C2)cc1OC (stereo not given) | NO
COc1ccc(-c2[nH]c(=S)n(C(CC3(C)NCC(=O)N3n3c(-c4ccccc4)cc(C)nc3=S)c3ccc(OC)cc3)c(=O)c2Br)cc1 (stereo not given) | NO
C=C1C(=O)O[C@H]2[C@H]1CC/C(COC(=O)C(=O)c1c[nH]c3ccccc13)=C\CC[C@@]1(C)O[C@@H]21 | YES
O=c1ssc(Cl)c1-c1ccccc1 | NO
C=C1C(=O)O[C@H]2[C@H]1CC/C(COC(=O)C(=O)c1cn(C)c3ccc(OC)cc13)=C\CC[C@@]1(C)O[C@@H]21 | YES

* * *

System: U251 CNS
measurement-description: NCI-60 one-dose screen, 48 h
cond: 10 µM unless noted
This is part of a sample that, as a whole, favours compounds with a hit. Of some 83,000 tested, about 20% had one in any assay. Active and inactive are the calls of the source. How the source made its calls: active means growth percent below 10; inactive means the rest.
Labels: true = active, false = inactive

molecule | answer-label
Cc1cc(NCCCCNc2ccnc3cc(Cl)ccc23)nc(Nc2ccc(C(=O)N3CCCC3)cc2)n1 | true
COc1ccc(-c2nc(SCCC(C)C)nc(N/N=C\c3ccccc3O)c2C#N)cc1 | false
COc1cc(C(=O)c2cc(C)c3[nH]c4ccc(Cl)cc4c3c2C)cc(OC)c1OC | false
Cc1cc(NCc2cc(Nc3ccnc4cc(Cl)ccc34)ccc2F)nc(Cl)n1 | false
FC(F)(F)c1cc(Nc2ccc3cc(OCCCN4CCOCC4)ccc3n2)ccc1Cl | true
Nc1nc(N)c2c(n1)NC(c1ccccc1)C1CCc3ccccc3C1=N2 (stereo not drawn) | false
Cc1ccc(-c2cc(-c3ccccc3C)[nH]c(=O)c2C#N)s1 | false
COc1cccc2c1C(=O)c1c(O)c3c(c(O)c1C2=O)CC(O)(/C(C)=N/NC(=O)CCCCC(=O)N/N=C(\C)C1(O)Cc2c(O)c4c(c(O)c2C(OC2CC(N)C(O)C(C)O2)C1)C(=O)c1c(OC)cccc1C4=O)CC3OC1CC(N)C(O)C(C)O1 (stereo not drawn) | true
COc1ccc(-c2nc3ccc4[nH]ncc4c3c3c2CCCC3)cc1B(O)O | false
O=c1c2c3c(sc2n2c(-c4cn(-c5ccccc5)nc4-c4ccc(Cl)cc4)nnc2n1Cc1ccccc1)CCCC3 | false
CC1(C)CC(=O)CC2(C1)N=C(N)Nc1nc3ccccc3n12 (stereo not drawn) | false
Cc1nc2ccccc2n1CC1NC(=O)NC1=O (stereo not drawn) | false
COc1ccc(Nc2nnc(SCc3ccccc3F)s2)cc1 | false
Cn1c(=O)c2c(nc(Cl)n2CCl)n(C)c1=O | false
NC1=NCc2nc3ccccc3c(=O)n2C1 | false
COc1ccc(/C=C/c2c(C(=O)/C=C/c3cccs3)c(C)nc3ccccc23)cc1 | false
CCOC(=O)c1ccc(N2NC(=O)/C(=C/c3ccc([N+](=O)[O-])o3)C2=O)cc1 | false
Cn1cc(-c2csc(-c3ccccc3)n2)c2cccnc21 | true
Cc1ccc(Cl)c(NS(=O)(=O)c2ccc(-c3cnc(C4CC4)o3)cc2)c1 | false
C[C@H](NC(=O)[C@@H]1CSSC[C@@H](NC(=O)c2nc3ccccc3cc2O)C(=O)NCC(=O)N1C)c1ccccc1 | true
Cc1ccc(/C=C/c2c(C(=O)/C=C/c3ccc(C(F)(F)F)cc3)c(C)nc3ccccc23)cc1 | true
Cc1ccc(C2SCC(=O)N2Cc2ccccc2)cc1 (stereo not drawn) | false
COc1cc(C2CC(=O)Nc3c2c(C)nn3-c2nc3ccccc3[nH]2)c(OC)c(OC)c1OC (stereo not drawn) | false
N=C1C(c2nc(-c3ccc(Br)cc3)cs2)=C(O)CN1CC1CCCO1 (stereo not drawn) | false
O=C(O)C1CCC(=O)N1C(=O)OCc1ccccc1 (stereo not drawn) | false
C=CCSc1nc2ccccc2cc1/C=N/O | false
COc1cc(N=Nc2cc(Cc3ccc(N(C)C)cc3)c(N)cc2N(C)C)c2ncccc2c1 | true
C=CCn1c(C)nc2cc(Nc3nc(Cl)nc4ccccc34)ccc21 | false

meta.source: PubChem BioAssay (NCI)
